Measured values drawn from paper PMC4336329 for this set.

# measured on: human ether-à-go-go-related gene (hERG) potassium channel (human)
# procedure summary: primary screen, population patch clamp on CHO cells stably expressing hERG; higher = less effect of the substance;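 note: peak tail current of the secondary pulse compared with the same well before compound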
The campaign covered roughly 310,000 compounds. About 14,000 (4.5%) showed an effect of 50% or more. Effects have a minus sign here. Only a selection was taken, and strong results are over-represented in it overall.
Kindly state hERG current change (%, negative = inhibition) at 10uM for each of the entries shown.
One number for each entry, in %.

For every item below, please supply its hERG current change (%, negative = inhibition) at 10uM.
1. Cc1cc(NCCCN(C)C)n2c(nc3ccccc32)c1C#N
2. CCCn1c(SCC(=O)c2ccc3c(c2)OCCO3)n[nH]c1=O
3. O=C(NCc1ccccc1)c1cc(S(=O)(=O)N2CCCCC2)ccc1N1CCOCC1
4. CCOC(=O)c1c(C)sc2c1N(C(=O)CCl)c1cc(Cl)ccc1S2

1: -1.49; 2: 22.6; 3: -20.1; 4: -3.3

Okay, here is my list. What is hERG current change (%, negative = inhibition) at 10uM for each of these?
1. COc1cccc(CC(=O)N2CCN(c3ccccc3[N+](=O)[O-])CC2)c1
2. NC(=O)c1ccsc1NC(=O)CS(=O)(=O)c1ccccc1
3. CCn1c(CC(=O)Nc2cccc(OC)c2)nnc1SCC(=O)Nc1nccs1
4. COc1ccc(C(CCNCc2ccc(N(C)C)cc2)c2ccccc2OC)cc1 (stereo not drawn)
5. COc1ccccc1NC(=O)CCS(=O)(=O)c1cc2c(cc1Cl)NC(=O)CO2
6. COc1ccc(C(=O)c2ccc(N3CCOCC3)c([N+](=O)[O-])c2)cc1
7. NC(=O)c1ccsc1NC(=O)CS(=O)(=O)c1ccc(F)cc1

-21
-8.27
-2.39
-71.1
1.94
-43.7
-68.2

* * *

# measured on: human ether-à-go-go-related gene (hERG) potassium channel (human, UniProt Q12809)
# Sequence (Q12809 whole entry, looked up): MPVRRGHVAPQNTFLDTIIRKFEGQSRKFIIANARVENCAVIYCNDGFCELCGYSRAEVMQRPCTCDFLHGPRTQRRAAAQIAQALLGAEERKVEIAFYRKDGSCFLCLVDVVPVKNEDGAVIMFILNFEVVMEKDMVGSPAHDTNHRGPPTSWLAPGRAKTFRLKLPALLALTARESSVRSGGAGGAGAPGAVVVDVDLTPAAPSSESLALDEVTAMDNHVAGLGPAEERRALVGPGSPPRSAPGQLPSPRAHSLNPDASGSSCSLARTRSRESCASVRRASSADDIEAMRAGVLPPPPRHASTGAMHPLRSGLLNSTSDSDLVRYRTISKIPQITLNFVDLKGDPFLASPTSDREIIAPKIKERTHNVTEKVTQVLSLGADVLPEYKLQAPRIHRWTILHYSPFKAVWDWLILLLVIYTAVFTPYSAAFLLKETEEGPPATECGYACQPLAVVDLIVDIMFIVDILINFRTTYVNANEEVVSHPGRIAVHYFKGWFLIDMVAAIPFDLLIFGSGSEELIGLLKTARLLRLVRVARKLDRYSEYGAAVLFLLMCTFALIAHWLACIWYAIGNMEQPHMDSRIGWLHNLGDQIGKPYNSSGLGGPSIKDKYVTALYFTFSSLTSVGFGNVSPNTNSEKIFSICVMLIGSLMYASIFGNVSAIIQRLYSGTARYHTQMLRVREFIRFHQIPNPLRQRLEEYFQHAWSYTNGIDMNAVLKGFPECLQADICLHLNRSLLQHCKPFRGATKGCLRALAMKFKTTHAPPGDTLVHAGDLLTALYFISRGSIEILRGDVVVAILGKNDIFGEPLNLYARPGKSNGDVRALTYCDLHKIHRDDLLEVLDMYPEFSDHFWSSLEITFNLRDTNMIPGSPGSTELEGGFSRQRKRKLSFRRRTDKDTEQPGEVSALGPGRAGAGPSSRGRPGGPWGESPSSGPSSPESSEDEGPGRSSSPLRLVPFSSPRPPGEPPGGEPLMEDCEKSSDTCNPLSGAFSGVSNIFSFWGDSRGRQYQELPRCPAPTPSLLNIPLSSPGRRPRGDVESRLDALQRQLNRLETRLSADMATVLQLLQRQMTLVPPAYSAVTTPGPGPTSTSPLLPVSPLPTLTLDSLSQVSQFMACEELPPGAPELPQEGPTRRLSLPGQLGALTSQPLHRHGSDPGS
# procedure summary: primary screen, population patch clamp on CHO cells stably expressing hERG; higher = less effect of the substance
The whole screen tested about 310,000 compounds, of which about 14,000 (4.5%) showed an effect of 50% or more. Effects have a minus sign here. The entries come from a sample that favours strong results as a whole.
reported metric: hERG current change (%, negative = inhibition) at 10uM (%)
Numbers only, in %.

Respectfully, I request hERG current change (%, negative = inhibition) at 10uM for each entry included below.
1. Cc1cccc2nc(CSc3nnnn3-c3ccccc3)cn12
2. COC(=O)C1CCN(Cc2nnc(-c3ccccc3)o2)CC1
3. O=C1CN(C(=O)CSc2ccc(-c3ccc(F)cc3)nn2)c2ccccc2N1
4. N#CCCn1cc(C(=O)Nc2ccc(C(=O)O)cc2)c(-c2cc3ccccc3o2)n1
5. CC(=O)Nc1ccc(S(=O)(=O)NC(CC(=O)N2CCC3(CC2)OCCO3)C(C)C)cc1 (centres unmarked)

1: -41.5; 2: 16.1; 3: -42.5; 4: 10.7; 5: 18.9

Each molecule below has a recorded value; state its hERG current change (%, negative = inhibition) at 10uM.
1. CC1=C(C(=O)OC(C)C)C(c2ccc(F)cc2)NC(=O)N1 (centres unmarked)
2. Fc1ccc(CN2CCSCC2)cc1Br
3. O=C(CNC(=O)OCc1ccccc1)Nc1ccc(Br)cc1C(=O)c1ccccc1

1. -5.4
2. -11.1
3. -15.1

Hello, I would appreciate it if you could give hERG current change (%, negative = inhibition) at 10uM for each entry below.
1. Cc1cc(C)n2cc(CSc3nnnn3C)nc2n1
2. O=C(CN1CCOCC1)Nc1ccc(Br)cc1C(=O)c1ccccc1
3. O=S1(=O)CCN=C2SC3=C(CCCC3)N21

1: 2.06; 2: -32.4; 3: 1.25

* * *

For each record, write down the corresponding hERG current change (%, negative = inhibition) at 10uM.
# measured on: human ether-à-go-go-related gene (hERG) potassium channel (human, UniProt Q12809)
# procedure summary: primary screen, population patch clamp on CHO cells stably expressing hERG; higher = less effect of the substance
Among all 310,000 compounds or so, about 14,000 (4.5%) showed an effect of 50% or more. Effects have a minus sign here. For the sample, strong results were picked, then their nearest neighbours and some compounds at random.
Answers are plain numbers, in %.

Illustrative cases are given below, each with its answer.
{"compound": "O=C(Nc1ccncc1)c1cccc(S(=O)(=O)N2CCCC2)c1", "measured on": "human ether-à-go-go-related gene (hERG) potassium channel (human, UniProt Q12809)", "obs value": -60.7}
{"compound": "COc1ccc(C(C#N)c2ccc(Cl)nn2)cc1 (stereo not drawn)", "measured on": "human ether-à-go-go-related gene (hERG) potassium channel (human, UniProt Q12809)", "obs value": -2.07}
{"compound": "COc1cc(/C(C)=N/N2CCN(c3ccccc3OC)CC2)ccc1O", "measured on": "human ether-à-go-go-related gene (hERG) potassium channel (human, UniProt Q12809)", "obs value": -9.07}
{"compound": "CCCOc1ccc(C(=O)CCC(=O)OCC(=O)Nc2ccc(Oc3ccccc3)cc2)cc1", "measured on": "human ether-à-go-go-related gene (hERG) potassium channel (human, UniProt Q12809)", "obs value": -13.3}
{"compound": "Cc1nc2cc(F)ccc2n1C1CCN(Cc2nnnn2CCc2ccccc2)CC1.Cl", "measured on": "human ether-à-go-go-related gene (hERG) potassium channel (human, UniProt Q12809)", "obs value": -65.7}
{"compound": "CCOC(=O)c1c(NC(=O)CSc2nnc(C)s2)sc2c1CCC(C)C2 (stereo not drawn)", "measured on": "human ether-à-go-go-related gene (hERG) potassium channel (human, UniProt Q12809)", "obs value": 21.5}
{"compound": "O=C1C=C(O)C(n2cncn2)C(c2ccc3c(c2)OCO3)C1 (stereo not drawn)", "measured on": "human ether-à-go-go-related gene (hERG) potassium channel (human, UniProt Q12809)", "obs value": 17.1}
{"compound": "Cc1nc2cc(C(F)(F)F)ccc2n1C1CCN(Cc2nnnn2CCc2ccccc2)CC1", "measured on": "human ether-à-go-go-related gene (hERG) potassium channel (human, UniProt Q12809)", "obs value": -68.4}

For each listed entry, give its hERG current change (%, negative = inhibition) at 10uM.
1. COc1ccccc1C(=O)NCCC(=O)NCc1ccccn1
2. Cc1ccc(S(=O)(=O)Cn2nnnc2CN2CCN(Cc3ccc4c(c3)OCO4)CC2)cc1
3. N#Cc1c(NC(=O)COC(=O)c2ccc(S(=O)(=O)N3CCCC3)cc2)sc2c1CCCCC2
4. O=C(Nc1nc(-c2ccccn2)cs1)c1ccc(Br)s1
5. Cc1cc(C)nc(NC(=O)CSc2nn(C)c(=S)s2)n1

[-2.66, -28.7, 6.38, 7.34, -0.37]

Look up hERG current change (%, negative = inhibition) at 10uM for the entries below, preserving their order.
1. CCc1cccc(NC(=O)c2cccc(S(=O)(=O)N3CCN(C)CC3)c2)c1
2. O=C(Nc1cccc(S(=O)(=O)N2CCCC2)c1)c1ccncc1
3. COc1ccc(NC(=O)CCc2nnc3ccc(NCc4ccco4)nn23)cc1
4. CCOCCCNC(=O)/C(C#N)=C/c1ccccc1F
5. CC1CCN(C(=O)CCc2ccc(S(=O)(=O)NC(C)(C)C)cc2)CC1
6. O=C1COc2ccc(C(=O)c3ccccc3C(=O)NCc3ccccc3)cc2N1

-53.9
-46.5
1.15
23.5
-5.31
-5.41

For every record below, what is its hERG current change (%, negative = inhibition) at 10uM?
1. CCOC(=O)C1CCN(Cc2nnnn2CCc2ccccc2)CC1
2. Brc1ccccc1OCCCN1CCCC1.O=C(O)C(=O)O
3. Cc1cc(=O)oc2cc(OCC(=O)Nc3ccccc3C(=O)O)ccc12
4. Cc1nc2ccccc2n1C1CCN(Cc2nnnn2CCc2ccccc2)CC1.Cl
5. O=C(NCc1ccc2c(c1)OCO2)C1CCCN(C(=O)c2ccc(Cl)cc2)C1 (stereo not drawn)
6. CN(CC(=O)Nc1cccc(F)c1)CC(=O)N(C)CC(=O)Nc1ccccc1Br
7. Brc1ccccc1OCCCN1CCCCCC1.O=C(O)C(=O)O

[-4.94, -12.4, 11.6, -68.6, -34.4, -13.7, -72.6]

* * *

# measured on: human ether-à-go-go-related gene (hERG) potassium channel (human)
# procedure summary: primary screen, population patch clamp on CHO cells stably expressing hERG; higher = less effect of the substance
Screen size: about 310,000 compounds; about 14,000 (4.5%) showed an effect of 50% or more. The effect is printed as a negative number. Shown is part of a subset that was picked to be rich in strong results.
reported metric: hERG current change (%, negative = inhibition) at 10uM (%)
Numbers only, in %.

{"smi": "CCN(CC)c1ccc(/C=C(/C#N)C(=O)NC(C)C)o1", "obs value": -1.68}

Return reported hERG current change (%, negative = inhibition) at 10uM values for all items listed beneath this line.
1. COc1cc(NC(=O)Cc2cccs2)c(C(=O)O)cc1OC
2. CC(C)Oc1ccc(C(=O)Nc2ccc(Cl)c(S(=O)(=O)Nc3ccc(Cl)cc3)c2)cc1
3. Cc1ccc(C(=O)Nc2nnc(-c3ccc(C(C)(C)C)cc3)s2)cc1

21.7
2.46
4.81
